The reported measurements were obtained from patent US9597407B2.

Tested on: microorganisms
Assay: Morphology, biofilm and growth disruption by peptides (Table 5)
Format: cell-based
Parameters: key: A: Peptide aggregates; B: Less hyphal formation; Clumps; Diffuse clumps and small polyps; F: Diffuse growth; H: Thin; I: Growth inhibition; Microcolony formation; Rippled; Small polyps; Thick; W: Halo formation on top, microlonies on bottom
Conditions: S. pneumoniae
Assay Metric: Organism, effect (morphology, biofilm and growth disruption)

Consider the worked cases shown below.
Substance | Result
PF-595 (LQNKIYELLYIKERSKLCS; Peptide with targeting and/or antimicrobial activity) | S. pneumoniae (R)
PF-596 (SKMWDKILTILILILELIRELIKL; Peptide with targeting and/or antimicrobial activity) | S. pneumoniae (D)
LNFRAENKILEKIHISLIDTVEGSA [PF-575] | S. pneumoniae (A)
PF-577 (PFETRESFRVPVIGILGGWDYFMHP; Peptide with targeting and/or antimicrobial activity) | S. pneumoniae (R)
PF-447 (IDKSRNKDQFSHIFGLYNICSG; Peptide with targeting and/or antimicrobial activity) | S. pneumoniae (C)
PF-744 (chain 1 LGVGTFVGKVLIKNQQKQKSKKKAQ; chain 2 LGVGTFVGKVLIKNQQKQKSKKKAQ; Peptide with targeting and/or antimicrobial activity) | S. pneumoniae (H)
PF-471 (MVGKIRGVTPRNDLLNANITGQLNLNYRLI; Peptide with targeting and/or antimicrobial activity) | S. pneumoniae (D)
PF-553 (LTIVGNALQQKNQKLLLNQKKITSLG; Peptide with targeting and/or antimicrobial activity) | S. pneumoniae (R)

**Query** Suppose we examine the substance GSVIKKRRKRMAKKKHRKLLKKTRIQRRRAGK [PF-527] ; what Organism, effect (morphology, biofilm and growth disruption) value has been reported?
**Result** S. pneumoniae (H)

**Query** Suppose we examine the substance PF-539 (SIILTKKKRRKIPLSIDSQIYKYTFKQ; Peptide with targeting and/or antimicrobial activity) ; what Organism, effect (morphology, biofilm and growth disruption) value has been reported?
**Result** S. pneumoniae (A)

**Query** Suppose we examine the substance PF-581 (WTARARR; Peptide with targeting and/or antimicrobial activity) ; what Organism, effect (morphology, biofilm and growth disruption) value has been reported?
**Result** S. pneumoniae (A)

----------
Test system: microorganisms
Test: Morphology, biofilm and growth disruption by peptides (Table 5)
Assay type: cell-based
Set-up: key: A: Peptide aggregates; B: Less hyphal formation; Clumps; Diffuse clumps and small polyps; F: Diffuse growth; H: Thin; I: Growth inhibition; Microcolony formation; Rippled; Small polyps; Thick; W: Halo formation on top, microlonies on bottom
Conditions: S. pneumoniae
Assay Metric: Organism, effect (morphology, biofilm and growth disruption)

Consider the worked cases shown below.
Substance | Result
PF-584 (SYIKNLSNQKFLIAF; Peptide with targeting and/or antimicrobial activity) | S. pneumoniae (D)
PF-741 (chain 1 AKREDTVAAQIGANILNLIQ; chain 2 AKREDTVAAQIGANILNLIQ; Peptide with targeting and/or antimicrobial activity) | S. pneumoniae (D)
PF-479 (AYILKRREEKNK; Peptide with targeting and/or antimicrobial activity) | S. pneumoniae (C)
PF-543 (NILFGIIGFVVAMTAAVIVTAISIAK; Peptide with targeting and/or antimicrobial activity) | S. pneumoniae (D)

Next item in the queue.
**Query** Recall the recorded Organism, effect (morphology, biofilm and growth disruption) for PF-443 (KLLYFFNYFENLQQVHLLVQL; Peptide with targeting and/or antimicrobial activity) with microorganisms and state it.
**Result** S. pneumoniae (C)

----------
System: microorganisms
Assay: Morphology, biofilm and growth disruption by peptides (Table 5)
Assay type: cell-based
Set-up: key: A: Peptide aggregates; B: Less hyphal formation; Clumps; Diffuse clumps and small polyps; F: Diffuse growth; H: Thin; I: Growth inhibition; Microcolony formation; Rippled; Small polyps; Thick; W: Halo formation on top, microlonies on bottom
Conditions: S. pneumoniae
Assay Metric: Organism, effect (morphology, biofilm and growth disruption)

Substance | Result
PF-457 (INKYHHIA; Peptide with targeting and/or antimicrobial activity) | S. pneumoniae (M)
CGKLLEQKNFFLKTR [PF-521] | S. pneumoniae (H)
PF-660 (chain 1 TDPQATAAPRRRTSPR; chain 2 TDPQATAAPRRRTSPR; Peptide with targeting and/or antimicrobial activity) | S. pneumoniae (H)
PF-675 (chain 1 EIIPISPTRRCEMHTMSSAEYRGL; chain 2 EIIPISPTRRCEMHTMSSAEYRGL; Peptide with targeting and/or antimicrobial activity) | S. pneumoniae (C)
PF-536 (MEPIPHIMIIANQIGIIIEKA; Peptide with targeting and/or antimicrobial activity) | S. pneumoniae (M)

**Query** Suppose we examine the substance PF-637 (chain 1 SRIKQDARSVRKYDRIGIFFYSFKSA; chain 2 SRIKQDARSVRKYDRIGIFFYSFKSA; Peptide with targeting and/or antimicrobial activity) ; what Organism, effect (morphology, biofilm and growth disruption) value has been reported?
**Result** S. pneumoniae (M)

**Query** Suppose we examine the substance PF-423 (AGKKERLLSFREQFLNKNKKK; Peptide with targeting and/or antimicrobial activity) ; what Organism, effect (morphology, biofilm and growth disruption) value has been reported?
**Result** S. pneumoniae (H)

**Query** Suppose we examine the substance PF-609 (TEIKLDNNEYLVLNLDDILGILK; Peptide with targeting and/or antimicrobial activity) ; what Organism, effect (morphology, biofilm and growth disruption) value has been reported?
**Result** S. pneumoniae (R)

**Query** Suppose we examine the substance PF-762 (chain 1 PAPAPSAPAPAPEQPEQPA; chain 2 PAPAPSAPAPAPEQPEQPA; Peptide with targeting and/or antimicrobial activity) ; what Organism, effect (morphology, biofilm and growth disruption) value has been reported?
**Result** S. pneumoniae (H)

**Query** Suppose we examine the substance PF-452 (MNNWIKVAQISVTVINEVIDIMKEKQNGGK; Peptide with targeting and/or antimicrobial activity) ; what Organism, effect (morphology, biofilm and growth disruption) value has been reported?
**Result** S. pneumoniae (R)

**Query** Suppose we examine the substance PF-776 (VSILLYLSATIILPNVLRLLVARAIIVRV; Peptide with targeting and/or antimicrobial activity) ; what Organism, effect (morphology, biofilm and growth disruption) value has been reported?
**Result** S. pneumoniae (C)

----------
Test system: BHK-21 fibroblasts
Assay: Cytotoxicity, Promega CellTiterGlo assay
Assay type: cell-based, hamster
Settings: BHK cells, 5 min dark
Assay Metric: IC50

**Query** Suppose we examine the compound O=C1OC2(c3cc(I)c(O)c(I)c3Oc3c2cc(I)c(O)c3I)c2c(Cl)c(Cl)c(Cl)c(Cl)c21 ; what IC50 value has been reported?
**Result** > 100 µM

----------
Tested on: bacteria
Experiment: Binding of targeting peptides to microorganisms (Table 3)
Details: peptide binding in aqueous buffers that varied depending on peptide solubility; preferably 1x PBS
Assay Metric: Target(s) (microorganism bound by the targeting peptide)

Substance | Result
PF-692 (chain 1 GVAREDPLEPDPLAPIIDDSR; chain 2 GVAREDPLEPDPLAPIIDDSR; Peptide with targeting and/or antimicrobial activity) | Mycobacteria spp
PF-657 (chain 1 YVANYTITQFGRDFDDRLAVAIHFA; chain 2 YVANYTITQFGRDFDDRLAVAIHFA; Peptide with targeting and/or antimicrobial activity) | Mycobacteria spp

----------
Tested on: microorganisms
Experiment: Morphology, biofilm and growth disruption by peptides (Table 5)
Format: cell-based
Set-up: key: A: Peptide aggregates; B: Less hyphal formation; Clumps; Diffuse clumps and small polyps; F: Diffuse growth; H: Thin; I: Growth inhibition; Microcolony formation; Rippled; Small polyps; Thick; W: Halo formation on top, microlonies on bottom
Details: S. pneumoniae
Assay Metric: Organism, effect (morphology, biofilm and growth disruption)

Substance | Test System | Result
PF-639 (chain 1 QATQIKSWIDRLLVSED; chain 2 QATQIKSWIDRLLVSED; Peptide with targeting and/or antimicrobial activity) | microorganisms | S. pneumoniae (I)
PF-462 (KNKTDTL; Peptide with targeting and/or antimicrobial activity) | microorganisms | S. pneumoniae (H)
PF-618 (KLNTLNKKDNPSLNDQDKNAVLNLLALAK; Peptide with targeting and/or antimicrobial activity) | microorganisms | S. pneumoniae (I)
PF-646 (chain 1 APASPGRRPG; chain 2 APASPGRRPG; Peptide with targeting and/or antimicrobial activity) | microorganisms | S. pneumoniae (H)

----------
System: bacteria
Assay: Binding of targeting peptides to microorganisms (Table 3)
Conditions: peptide binding in aqueous buffers that varied depending on peptide solubility; preferably 1x PBS
Square brackets hold non-standard residues; d marks the D form. Ends that are not written are not given here. Aib = CC(C)(N)C(=O)O
Assay Metric: Target(s) (microorganism bound by the targeting peptide)

Consider the worked cases shown below.
Substance | Result
PF-799 (YTHYNTALSYALLLTNKSSVP; Peptide with targeting and/or antimicrobial activity) | S. mutans
PF-694 (chain 1 DLIRPLYSMSAPSVA; chain 2 DLIRPLYSMSAPSVA; Peptide with targeting and/or antimicrobial activity) | Mycobacteria spp
PF-789 (PRGAQSGHG; Peptide with targeting and/or antimicrobial activity) | Mycobacteria spp.
PF-778 (MNLILTAHGT; Peptide with targeting and/or antimicrobial activity) | Mycobacteria spp.
PF-796 (YTQSNIPTAYALMLSNKDSI; Peptide with targeting and/or antimicrobial activity) | S. mutans

**Query** Suppose we examine the substance PF-646 (chain 1 APASPGRRPG; chain 2 APASPGRRPG; Peptide with targeting and/or antimicrobial activity) ; what Target(s) (microorganism bound by the targeting peptide) value has been reported?
**Result** Mycobacteria spp

**Query** Suppose we examine the substance PF-709 (NKKHSPMD; Peptide with targeting and/or antimicrobial activity) ; what Target(s) (microorganism bound by the targeting peptide) value has been reported?
**Result** S. mutans

**Query** Suppose we examine the substance PF-777 (PGADGKLAEASAAIARLVRS; Peptide with targeting and/or antimicrobial activity) ; what Target(s) (microorganism bound by the targeting peptide) value has been reported?
**Result** Mycobacteria spp.

**Query** Suppose we examine the substance PF-793 (YTQ[Aib]NNASAYAMLLTNKDTVP; ends and bridges not checked) ; what Target(s) (microorganism bound by the targeting peptide) value has been reported?
**Result** S. mutans

**Query** Suppose we examine the substance PF-699 (chain 1 GRAGVKCRRPTGR; chain 2 GRAGVKCRRPTGR; Peptide with targeting and/or antimicrobial activity) ; what Target(s) (microorganism bound by the targeting peptide) value has been reported?
**Result** Mycobacteria spp

**Query** Suppose we examine the substance PF-698 (chain 1 SSGRAGVKCRRPTGR; chain 2 SSGRAGVKCRRPTGR; Peptide with targeting and/or antimicrobial activity) ; what Target(s) (microorganism bound by the targeting peptide) value has been reported?
**Result** Mycobacteria spp
